measurement target: MDR1 (ABCB1, P-glycoprotein) (Homo sapiens)
Sequence (P08183 whole entry): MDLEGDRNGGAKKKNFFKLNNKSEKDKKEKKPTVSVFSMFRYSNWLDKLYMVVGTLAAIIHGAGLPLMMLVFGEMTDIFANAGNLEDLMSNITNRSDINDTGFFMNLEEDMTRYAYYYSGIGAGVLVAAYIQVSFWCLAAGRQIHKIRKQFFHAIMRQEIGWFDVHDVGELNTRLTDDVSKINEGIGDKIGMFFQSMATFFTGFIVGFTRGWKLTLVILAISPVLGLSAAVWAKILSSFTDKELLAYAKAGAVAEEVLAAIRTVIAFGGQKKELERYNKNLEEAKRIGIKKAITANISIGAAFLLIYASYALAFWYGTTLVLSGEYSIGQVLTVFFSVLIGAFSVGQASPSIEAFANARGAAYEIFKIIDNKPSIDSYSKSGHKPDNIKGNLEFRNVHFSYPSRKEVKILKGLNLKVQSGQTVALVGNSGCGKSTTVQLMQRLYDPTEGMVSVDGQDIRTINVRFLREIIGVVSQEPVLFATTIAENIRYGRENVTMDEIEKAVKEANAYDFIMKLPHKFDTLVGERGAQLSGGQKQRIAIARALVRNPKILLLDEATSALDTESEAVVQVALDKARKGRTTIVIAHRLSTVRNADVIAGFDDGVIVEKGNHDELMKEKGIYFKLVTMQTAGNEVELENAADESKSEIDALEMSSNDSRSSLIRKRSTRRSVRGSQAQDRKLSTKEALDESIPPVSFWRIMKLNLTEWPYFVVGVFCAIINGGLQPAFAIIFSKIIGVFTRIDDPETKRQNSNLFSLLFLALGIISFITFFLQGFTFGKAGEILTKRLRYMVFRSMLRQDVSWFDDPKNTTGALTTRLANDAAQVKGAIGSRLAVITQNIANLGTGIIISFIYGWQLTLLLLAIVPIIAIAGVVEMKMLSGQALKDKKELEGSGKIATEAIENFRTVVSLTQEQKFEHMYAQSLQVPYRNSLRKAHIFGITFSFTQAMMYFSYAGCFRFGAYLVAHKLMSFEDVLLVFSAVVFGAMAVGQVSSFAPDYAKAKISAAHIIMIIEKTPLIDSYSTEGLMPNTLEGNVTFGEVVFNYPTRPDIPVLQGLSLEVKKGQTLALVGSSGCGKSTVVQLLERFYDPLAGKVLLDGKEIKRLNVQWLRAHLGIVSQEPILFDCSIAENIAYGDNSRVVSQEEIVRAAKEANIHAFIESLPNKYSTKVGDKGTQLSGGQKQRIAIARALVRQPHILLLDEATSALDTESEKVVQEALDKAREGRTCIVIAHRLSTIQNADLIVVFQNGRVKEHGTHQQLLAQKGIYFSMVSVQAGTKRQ
method: Inhibition of human MDR1 expressed in mouse NIH-3T3 cells assessed as daunomycin efflux at 10 uM after 30 mins by flow cytometry relative to control
Type: cell-based, NIH3T3
test parameters: mouse NIH-3T3 cells expressing human MDR1, probe daunomycin, read-out: Imax
property name: inhibition at 0.5 h, 10 µM

Worked examples, 2 compounds total:
CC(=O)O[C@@H]1[C@H](OC(C)=O)[C@@H](C)[C@@]23C[C@@H](C[C@H](OC(=O)c4ccccc4)[C@]2(C)[C@H]1OC(=O)c1ccoc1)C(C)(C)O3: > 90%
CC(=O)O[C@@H]1C[C@](C)(O)[C@@]23C[C@@H](C[C@H](OC(=O)/C=C/c4ccccc4)[C@]2(C)[C@H]1OC(=O)c1ccoc1)C(C)(C)O3: > 90%

Lab note: next compound to report on.
Exercise: Output measured inhibition at 0.5 h, 10 µM for this item: CC(=O)OC[C@]12[C@@H](OC(=O)c3ccoc3)C[C@@H]3[C@@H](OC(=O)c4ccccc4)[C@]1(OC3(C)C)[C@@](C)(O)C[C@H](OC(=O)c1ccccc1)[C@@H]2OC(C)=O
Solution: > 90%

----------
method: Intrinsic toxicity in wild type mouse NIH/3T3 cells assessed as cell growth at 10 uM relative to control
Assay type: cell-based, NIH3T3
test parameters: wild type NIH/3T3 cells, read-out: Activity
property name: viability at 10 µM (%)
One number for each entry, in %.

Worked examples, 7 compounds total:
CC(=O)OC[C@]12[C@@H](OC(=O)c3ccccc3)C[C@@H]3[C@@H](OC(=O)c4ccccc4)[C@]1(OC3(C)C)[C@@](C)(O)C[C@H](OC(C)=O)[C@@H]2OC(C)=O: 76.7
CC(=O)O[C@@H]1[C@H](OC(C)=O)[C@@H](C)[C@@]23C[C@@H](C[C@H](OC(=O)c4ccccc4)[C@]2(C)[C@H]1OC(=O)c1ccoc1)C(C)(C)O3: 91.8
CC(=O)O[C@H]1[C@@H](OC(=O)c2ccccc2)C[C@](C)(O)[C@]23OC(C)(C)[C@H](C[C@H](OC(=O)c4ccoc4)[C@]12C)[C@H]3OC(=O)c1ccccc1: 108
CC(=O)OC[C@]12[C@@H](OC(=O)c3ccccc3)C[C@@H]3[C@@H](OC(=O)c4ccccc4)[C@]1(OC3(C)C)[C@@](C)(O)C[C@H](O)[C@@H]2OC(C)=O: 84.4
CC(=O)OC[C@]12[C@@H](OC(=O)c3ccoc3)C[C@@H]3[C@@H](OC(=O)c4ccoc4)[C@]1(OC3(C)C)[C@@](C)(O)C[C@H](OC(C)=O)[C@@H]2OC(C)=O: 92
CC(=O)O[C@@H]1C[C@](C)(O)[C@@]23C[C@@H](C[C@H](OC(=O)/C=C/c4ccccc4)[C@]2(C)[C@H]1OC(=O)c1ccoc1)C(C)(C)O3: 86
CC(=O)OC[C@]12[C@@H](OC(=O)c3ccoc3)C[C@@H]3[C@@H](OC(=O)c4ccccc4)[C@]1(OC3(C)C)[C@@](C)(O)C[C@H](OC(=O)c1ccccc1)[C@@H]2OC(C)=O: 82.1

Lab note: next compound to report on.
Exercise: Output measured viability at 10 µM for this item: CC(=O)OC[C@]12[C@@H](OC(=O)c3ccoc3)C[C@@H]3[C@@H](OC(=O)c4ccccc4)[C@]1(OC3(C)C)[C@@](C)(O)C[C@H](OC(C)=O)[C@@H]2OC(C)=O
Solution: 92.4

----------
method: Intrinsic toxicity in mouse NIH/3T3 cells expressing human MDR1 assessed as cell growth at 10 uM relative to control
Format: ADME, cell-based, NIH3T3
test parameters: read-out: Activity
Rule: viability at 10 µM below 80% gives satisfied. Equal to or above 80% gives not satisfied.

Worked cases, answers included:
CC(=O)OC[C@]12[C@@H](OC(=O)c3ccccc3)C[C@@H]3[C@@H](OC(=O)c4ccccc4)[C@]1(OC3(C)C)[C@@](C)(O)C[C@H](OC(C)=O)[C@@H]2OC(C)=O: satisfied
CC(=O)O[C@H]1[C@@H](OC(=O)c2ccccc2)C[C@](C)(O)[C@]23OC(C)(C)[C@H](C[C@H](OC(=O)c4ccoc4)[C@]12C)[C@H]3OC(=O)c1ccccc1: not satisfied

Exercise: viability at 10 µM strictly < 80% for this compound? CC(=O)O[C@@H]1[C@H](OC(C)=O)[C@@H](C)[C@@]23C[C@@H](C[C@H](OC(=O)c4ccccc4)[C@]2(C)[C@H]1OC(=O)c1ccoc1)C(C)(C)O3
Solution: not satisfied

Exercise: viability at 10 µM strictly < 80% for this compound? CC(=O)OC[C@]12[C@@H](OC(=O)c3ccoc3)C[C@@H]3[C@@H](OC(=O)c4ccccc4)[C@]1(OC3(C)C)[C@@](C)(O)C[C@H](OC(=O)c1ccccc1)[C@@H]2OC(C)=O
Solution: not satisfied

Exercise: viability at 10 µM strictly < 80% for this compound? CC(=O)OC[C@]12[C@@H](OC(=O)c3ccccc3)C[C@@H]3[C@@H](OC(=O)c4ccccc4)[C@]1(OC3(C)C)[C@@](C)(O)C[C@H](O)[C@@H]2OC(C)=O
Solution: not satisfied

----------
measurement target: MDR1 (ABCB1, P-glycoprotein) (Homo sapiens)
method: Inhibition of human MDR1 expressed in mouse NIH-3T3 cells assessed as daunomycin efflux at 10 uM after 30 mins by flow cytometry
Format: cell-based, NIH3T3
test parameters: mouse NIH-3T3 cells expressing human MDR1, probe daunomycin
Record form. Attribute: inhibition at 0.5 h, 10 µM. Fill in for each entry.
Give bare numbers, in %.

Worked examples, 2 compounds total:
CC(=O)OC[C@]12[C@@H](OC(=O)c3ccoc3)C[C@@H]3[C@@H](OC(=O)c4ccccc4)[C@]1(OC3(C)C)[C@@](C)(O)C[C@H](OC(C)=O)[C@@H]2OC(C)=O: 70
CC(=O)OC[C@]12[C@@H](OC(=O)c3ccccc3)C[C@@H]3[C@@H](OC(=O)c4ccccc4)[C@]1(OC3(C)C)[C@@](C)(O)C[C@H](OC(C)=O)[C@@H]2OC(C)=O: 70

Exercise: Output measured inhibition at 0.5 h, 10 µM for this item: CC(=O)OC[C@]12[C@@H](OC(=O)c3ccoc3)C[C@@H]3[C@@H](OC(=O)c4ccoc4)[C@]1(OC3(C)C)[C@@](C)(O)C[C@H](OC(C)=O)[C@@H]2OC(C)=O
Solution: 70

----------
method: Intrinsic toxicity in mouse NIH/3T3 cells expressing human MDR1 assessed as cell growth at 10 uM relative to control
Type: ADME, cell-based, NIH3T3
test parameters: read-out: Activity
Record form. Attribute: viability at 10 µM. Fill in for each entry.

Worked examples, 2 molecules total:
CC(=O)OC[C@]12[C@@H](OC(=O)c3ccoc3)C[C@@H]3[C@@H](OC(=O)c4ccccc4)[C@]1(OC3(C)C)[C@@](C)(O)C[C@H](OC(C)=O)[C@@H]2OC(C)=O: 87.8%
CC(=O)O[C@@H]1C[C@](C)(O)[C@@]23C[C@@H](C[C@H](OC(=O)/C=C/c4ccccc4)[C@]2(C)[C@H]1OC(=O)c1ccoc1)C(C)(C)O3: 100%

Lab note: next molecule to report on.
Exercise: Output measured viability at 10 µM for this item: CC(=O)OC[C@]12[C@@H](OC(=O)c3ccoc3)C[C@@H]3[C@@H](OC(=O)c4ccoc4)[C@]1(OC3(C)C)[C@@](C)(O)C[C@H](OC(C)=O)[C@@H]2OC(C)=O
Solution: 82.9%

----------
Record form. Attribute: Ki. Fill in for each entry.
measurement target: ATP-dependent translocase ABCB1 (Homo sapiens)
Sequence (P08183 whole entry): as above
Numbers only, in µM.

CC(=O)OC[C@]12[C@@H](OC(=O)c3ccoc3)C[C@@H]3[C@@H](OC(=O)c4ccccc4)[C@]1(OC3(C)C)[C@@](C)(O)C[C@H](OC(=O)c1ccccc1)[C@@H]2OC(C)=O: 0.34

Lab note: next molecule to report on.
Exercise: Send back ATP-dependent translocase ABCB1 (Homo sapiens) Ki of CC(=O)OC[C@]12[C@@H](OC(=O)c3ccccc3)C[C@@H]3[C@@H](OC(=O)c4ccccc4)[C@]1(OC3(C)C)[C@@](C)(O)C[C@H](O)[C@@H]2OC(C)=O only.
Solution: 0.47
